The measured values listed here are drawn from PubChem BioAssay (NCI).

tested on: HOP-92 NSCLC; experiment: NCI-60 one-dose screen, 48 h; conditions: 10 µM unless noted
About 83,000 compounds went through this panel and 20% of them were active in at least one assay; those are over-represented in the sample as a whole. Activity calls are given as the source filed them. Rule for the calls: active = growth percent below 10; inactive = the rest.
Field 'call' accepts active, inactive

-- ask Could you kindly confirm the outcome this assay logged for CC(C)(C)c1ccc(Cn2cc(CSc3nc4ccccc4s3)nn2)cc1 ?
-- reply inactive

-- ask Could you kindly confirm the outcome this assay logged for Nc1ncnc2c1c(-c1cccc(OCc3ccccc3)c1)cn2C1CC(CN2CCC2)C1 (stereo not given) ?
-- reply active

-- ask Could you kindly confirm the outcome this assay logged for CN(N)c1nc2sc3c(c2c(=O)[nH]1)CCCC3 ?
-- reply inactive

-- ask Could you kindly confirm the outcome this assay logged for C=CC(=O)Nc1cc(Nc2nccc(-c3cn(C)c4ccccc34)n2)c(OC)cc1N(C)CCN(C)C ?
-- reply active

-- ask Could you kindly confirm the outcome this assay logged for N#Cc1c(NC(=O)c2cccs2)[n+]([O-])c2ccc(F)cc2[n+]1[O-] ?
-- reply inactive

-- ask Could you kindly confirm the outcome this assay logged for COc1cc(N2CCC(N3CCN(C)CC3)CC2)ccc1Nc1ncnc(Nc2ccccc2S(=O)(=O)C(C)C)n1 ?
-- reply inactive
